Target: STK17BA (Homo sapiens)
Construct: purchased in-house DSF kinase panel (SGC-style construct names; the trailing letter is the construct ID)
Sequence (O94768 25-329): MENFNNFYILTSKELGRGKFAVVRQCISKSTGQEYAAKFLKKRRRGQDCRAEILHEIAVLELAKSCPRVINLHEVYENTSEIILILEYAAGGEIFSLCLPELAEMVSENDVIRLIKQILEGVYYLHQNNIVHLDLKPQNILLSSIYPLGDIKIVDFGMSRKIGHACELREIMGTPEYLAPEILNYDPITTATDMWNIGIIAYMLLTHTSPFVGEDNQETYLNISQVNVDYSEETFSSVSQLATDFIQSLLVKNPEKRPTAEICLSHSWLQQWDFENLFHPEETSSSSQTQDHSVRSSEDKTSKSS
Assay: DSF Tm panel
Assay type: binding
Conditions: 10 μM compound
Hi, to clarify the labels: true covers ΔTm at 10 µM from 3 °C upward, false covers anything below 3 °C.

Check this compound for ΔTm at 10 µM at or above 3 °C: `COc1ccc(CNC(=O)Nc2ccc3cc2OCCOCCNc2ccn4ncc-3c4n2)cc1F`
true

Please tell me: is the compound `COc1cc(CNC(=O)Nc2ccc3cc2OCCOCCNc2ccn4ncc-3c4n2)ccc1F` at or over 3 °C in terms of ΔTm at 10 µM?
false

Decide: ΔTm at 10 µM of `O=C(NCc1ccc(Cl)cc1)Nc1ccc2cc1OCCOCCNc1ccn3ncc-2c3n1` >= 3 °C?
false

Answer whether ΔTm at 10 µM of `CN1CCN(C(=O)Nc2ccc3cc2OCCOCCNc2ccn4ncc-3c4n2)CC1` is greater than or equal to 3 °C.
true

Say whether `COc1cccc(CNC(=O)Nc2ccc3cc2OCCOCCNc2ccn4ncc-3c4n2)c1` shows ΔTm at 10 µM of 3 °C or more.
false

Form field: ΔTm at 10 µM at least 3 °C? Entry: `COc1ccc(CNC(=O)Nc2ccc3cc2OCCOCCNc2ccn4ncc-3c4n2)cc1`
false

In plain terms: is recorded ΔTm at 10 µM at least 3 °C for `Cc1cc(Br)ccc1CNC(=O)Nc1ccc2cc1OCCOCCNc1ccn3ncc-2c3n1` ?
true

Decide: ΔTm at 10 µM of `O=C(NCc1ccccc1Cl)Nc1ccc2cc1OCCOCCNc1ccn3ncc-2c3n1` >= 3 °C?
true

Could you tell me if the measured ΔTm at 10 µM of `O=C(NCc1cccc(Cl)c1)Nc1ccc2cc1OCCOCCNc1ccn3ncc-2c3n1` reaches 3 °C or more?
false

Decide: is the reported value of ΔTm at 10 µM for `C[C@H](NC(=O)Nc1ccc2cc1OCCOCCNc1ccn3ncc-2c3n1)c1ccccc1` equal to or greater than 3 °C?
false

# bool: ΔTm at 10 µM of `O=C(NCc1ccc(C(F)(F)F)cc1)Nc1ccc2cc1OCCOCCNc1ccn3ncc-2c3n1` >= 3 °C
true

Please tell me: is the compound `Cc1ccc(F)cc1CNC(=O)Nc1ccc2cc1OCCOCCNc1ccn3ncc-2c3n1` at or over 3 °C in terms of ΔTm at 10 µM?
true

API: above_or_equal(metric=ΔTm at 10 µM, cutoff=3 °C) for item `O=C(NCc1ccc(Cl)cc1F)Nc1ccc2cc1OCCOCCNc1ccn3ncc-2c3n1`
false

Check if ΔTm at 10 µM >= 3 °C (inclusive). Item: `O=C(NCc1ccccc1)Nc1ccc2cc1OCCOCCNc1ccn3ncc-2c3n1`
false

----------
Would you kindly list ΔTm at 10 µM for each of these compounds?
Target: DCAMKL1A (Homo sapiens, UniProt O15075)
Construct: purchased in-house DSF kinase panel (SGC-style construct names; the trailing letter is the construct ID)
Sequence (O15075 372-649): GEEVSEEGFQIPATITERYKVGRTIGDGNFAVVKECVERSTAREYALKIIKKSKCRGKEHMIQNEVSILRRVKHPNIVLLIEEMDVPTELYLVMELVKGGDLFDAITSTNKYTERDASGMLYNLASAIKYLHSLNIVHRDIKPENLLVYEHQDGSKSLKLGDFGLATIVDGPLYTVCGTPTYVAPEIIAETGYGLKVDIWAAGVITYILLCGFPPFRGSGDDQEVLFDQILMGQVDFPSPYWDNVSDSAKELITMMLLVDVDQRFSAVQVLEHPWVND
Test: DSF Tm panel
Format: binding
Details: 10 μM compound

State the measured ΔTm at 10 µM (DCAMKL1A (Homo sapiens, UniProt O15075)) of `O=C(NCc1ccc(C(F)(F)F)cc1)Nc1ccc2cc1OCCOCCNc1ccn3ncc-2c3n1`
2.7 °C

Print DCAMKL1A (Homo sapiens, UniProt O15075) ΔTm at 10 µM for `COc1cc(CNC(=O)Nc2ccc3cc2OCCOCCNc2ccn4ncc-3c4n2)ccc1F` .
2.2 °C

Output reported ΔTm at 10 µM of the compound `O=C(NCc1ccc(Cl)cc1F)Nc1ccc2cc1OCCOCCNc1ccn3ncc-2c3n1` on DCAMKL1A (Homo sapiens, UniProt O15075).
0.4 °C

Report value only: ΔTm at 10 µM, DCAMKL1A (Homo sapiens, UniProt O15075), `CN1CCN(C(=O)Nc2ccc3cc2OCCOCCNc2ccn4ncc-3c4n2)CC1`
0.6 °C
